self-splicing fitness (ln) by entry:
assay: self-splicing fitness, log relative to wild type (ln ratio); higher = more splicing; Tetrahymena group I intron in knt gene, E. coli kanamycin selection, DiMSum; sequences stand for … in CUCUCU…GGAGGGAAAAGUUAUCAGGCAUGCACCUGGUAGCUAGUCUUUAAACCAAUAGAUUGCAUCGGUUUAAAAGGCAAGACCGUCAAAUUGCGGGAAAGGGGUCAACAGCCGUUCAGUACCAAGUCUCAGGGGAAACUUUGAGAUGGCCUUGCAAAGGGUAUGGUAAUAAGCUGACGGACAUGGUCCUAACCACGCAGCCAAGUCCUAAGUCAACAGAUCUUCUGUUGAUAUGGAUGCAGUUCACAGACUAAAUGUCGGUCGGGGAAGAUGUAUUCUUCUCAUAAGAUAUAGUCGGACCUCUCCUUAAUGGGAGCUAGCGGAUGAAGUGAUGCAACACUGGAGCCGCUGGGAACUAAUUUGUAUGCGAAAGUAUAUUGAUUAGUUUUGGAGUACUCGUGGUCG; details: 37 °C;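 further: selection with 25 µg/mL kanamycin versus none on LB agar overnight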
metric name: self-splicing fitness (ln)

CCCCAGCAAUAUUACGUCAC :: -2.93
UUUAAGCAAUAUUACGAGAU :: -0.782
UGAGAGCAAUAUUACGAUGA :: -2.48
CGGCAGCAAUAUUACGGUUG :: -1.11
GAGCAGCAAUAUUACGGCAU :: -0.549
AUUCAGCAAUAUUACGUCGC :: -1.86
ACAGAGCAAUAUUACGAACC :: -1.67
AGCAAGCAAUAUUACGUAGA :: -2.44
GGUAAGCAAUAUUACGAGUA :: -1.03
UAGGAGCAAUAUUACGUGGU :: -2.26
ACGGAGCAAUAUUACGUAAA :: -1.27
ACGAAGCAAUAUUACGGCGA :: 0.0766
CUUCAGCAAUAUUACGUGUA :: -3.22
UAAGAGCAAUAUUACGGGUU :: -2.06
AUACAGCAAUAUUACGAUAA :: -0.374
UUAUAGCAAUAUUACGGCCU :: -1.09
